test: Solubility measurement (compound dissolved in solvent, left 1 day, precipitate checked by Tyndall effect); type: physicochemical; conditions: dissolved in a solvent, left to stand for 1 day, laser / Tyndall effect

{"compound": "C[Si](C)(C)c1ccc(N(c2ccccc2)c2ccc3ccc4c(N(c5ccccc5)c5ccc([Si](C)(C)C)cc5)ccc5ccc2c3c54)cc1 [Compound C]", "Solubility [wt %]": 0.1}
{"compound": "C[Si](C)(C)c1ccc(-c2ccc(N(c3ccc4ccc5c(N(c6ccc(-c7ccc([Si](C)(C)C)cc7)cc6)c6cccc7c6oc6ccccc67)ccc6ccc3c4c65)c3cccc4c3oc3ccccc34)cc2)cc1 [Compound D]", "Solubility [wt %]": 0.05}
{"compound": "c1ccc([Si](c2ccccc2)(c2ccccc2)c2ccc(-c3ccc(N(c4ccc(-c5cccc6c5oc5ccccc56)cc4)c4cc5ccc6cccc7ccc(c4)c5c67)cc3)cc2)cc1 [Compound E]", "Solubility [wt %]": 2}
{"compound": "c1ccc([Si](c2ccccc2)(c2ccccc2)c2ccc(-c3ccc(N(c4ccc(-c5ccc6c(c5)oc5ccccc56)cc4)c4cc5ccc6cccc7ccc(c4)c5c67)cc3)cc2)cc1 [Compound F]", "Solubility [wt %]": 2}
